Assay system NSP1 (Severe acute respiratory syndrome coronavirus 2, UniProt P0DTD1); read-out recorded as gfp signal, mean of duplicate wells.
Give bare numbers.

>  <COMPOUND>
CN1CCN(S(=O)(=O)c2ccc(N3Cc4cc5c(cc4C4(CCCC4)C3)OCCO5)nc2)CC1

>  <ASSAYED_SYSTEM>
NSP1 (Severe acute respiratory syndrome coronavirus 2, UniProt P0DTD1)

>  <VALUE_REPORTED>
362.5

$$$$
>  <COMPOUND>
CN(C)CC1CCn2cc(c3ccccc32)C2=C(C(=O)NC2=O)c2cn(c3ccccc23)CCO1 (stereo not shown)

>  <ASSAYED_SYSTEM>
NSP1 (Severe acute respiratory syndrome coronavirus 2, UniProt P0DTD1)

>  <VALUE_REPORTED>
442

$$$$
>  <COMPOUND>
CCOc1cc(C(=O)Nc2ccc(Cl)c(-c3nc4ccccc4[nH]3)c2)cc(OCC)c1OCC

>  <ASSAYED_SYSTEM>
NSP1 (Severe acute respiratory syndrome coronavirus 2, UniProt P0DTD1)

>  <VALUE_REPORTED>
1615.5

$$$$
>  <COMPOUND>
O=C(CSc1nc(-c2ccccc2)cn1-c1ccccc1)NC(=O)Nc1ccccc1

>  <ASSAYED_SYSTEM>
NSP1 (Severe acute respiratory syndrome coronavirus 2, UniProt P0DTD1)

>  <VALUE_REPORTED>
2499.5

$$$$
>  <COMPOUND>
Cn1c(=O)c2ccccc2n2c(CNC(c3ccc4c(c3)CCC4)c3cccs3)nnc12 (stereo not shown)

>  <ASSAYED_SYSTEM>
NSP1 (Severe acute respiratory syndrome coronavirus 2, UniProt P0DTD1)

>  <VALUE_REPORTED>
1907

$$$$
>  <COMPOUND>
CCOC(=O)c1ccsc1NC(=O)CN1C(=O)NC(C)(c2cccc3ccccc23)C1=O (stereo not shown)

>  <ASSAYED_SYSTEM>
NSP1 (Severe acute respiratory syndrome coronavirus 2, UniProt P0DTD1)

>  <VALUE_REPORTED>
311

$$$$
>  <COMPOUND>
O=c1cc(CN2CCOCC2)occ1OCCCCCSc1ccnc2cc(C(F)(F)F)ccc12

>  <ASSAYED_SYSTEM>
NSP1 (Severe acute respiratory syndrome coronavirus 2, UniProt P0DTD1)

>  <VALUE_REPORTED>
1636.5

$$$$
>  <COMPOUND>
Cc1ccc(C(=O)c2cc(O)c(O)c([N+](=O)[O-])c2)cc1

>  <ASSAYED_SYSTEM>
NSP1 (Severe acute respiratory syndrome coronavirus 2, UniProt P0DTD1)

>  <VALUE_REPORTED>
2857

$$$$

Hi! Can you tell me gfp signal, mean of duplicate wells for each of these compounds?
1. COc1ccc2oc(C(=O)OC(C)C(=O)Nc3sccc3C(N)=O)c(C)c2c1 (stereo not shown)
2. Cc1cc(-n2c(C)cc(-c3csc(N)n3)c2C)no1

Solution:
[2086.5, 2104]

---

- ASSAYED_SYSTEM: eIF1A without NTT (Homo sapiens)
- Construct: His-bdSUMO (cleaved yes); made in house; host or cells: E. coli (BL-21)
- Sequence (P47813 31-144 limits assumed): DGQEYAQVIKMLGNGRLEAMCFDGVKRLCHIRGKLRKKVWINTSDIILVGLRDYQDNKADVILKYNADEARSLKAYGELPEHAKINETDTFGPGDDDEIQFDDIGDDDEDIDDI
- ASSAY: Fluorescence binding assay with NTT-truncated eIF1A

>  <ITEM_SMILES>
CCOc1cc(C(=O)Nc2ccc(Cl)c(-c3nc4ccccc4[nH]3)c2)cc(OCC)c1OCC

>  <binding to NTT-truncated eIF1A>
significantly decreased

$$$$
>  <ITEM_SMILES>
O=C(COc1ccccc1[N+](=O)[O-])NCc1ccc(-c2ccc(Br)cc2)o1

>  <binding to NTT-truncated eIF1A>
significantly decreased

$$$$
>  <ITEM_SMILES>
Cc1ccc(C(=O)c2cc(O)c(O)c([N+](=O)[O-])c2)cc1

>  <binding to NTT-truncated eIF1A>
significantly decreased

$$$$

Reference source: paper PMC12216609
